# TESTED SYSTEM: Cellular tumor antigen p53/Replication protein A 70 kDa DNA-binding subunit (Homo sapiens, UniProt P04637+P27694)
# Sequence (P04637 whole entry, the tested form may be a part): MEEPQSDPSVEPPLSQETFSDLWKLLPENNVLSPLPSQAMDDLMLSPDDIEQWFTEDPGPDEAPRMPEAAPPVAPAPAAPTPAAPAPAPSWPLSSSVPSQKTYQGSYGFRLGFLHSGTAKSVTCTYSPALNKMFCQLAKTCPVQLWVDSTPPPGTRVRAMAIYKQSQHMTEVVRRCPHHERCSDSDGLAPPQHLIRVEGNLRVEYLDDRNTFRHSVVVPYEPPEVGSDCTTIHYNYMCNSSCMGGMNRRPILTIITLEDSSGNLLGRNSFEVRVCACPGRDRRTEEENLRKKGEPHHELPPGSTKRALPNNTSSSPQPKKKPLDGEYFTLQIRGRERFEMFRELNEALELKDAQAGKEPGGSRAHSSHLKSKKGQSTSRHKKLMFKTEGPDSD
# Sequence (P27694 whole entry, the tested form may be a part): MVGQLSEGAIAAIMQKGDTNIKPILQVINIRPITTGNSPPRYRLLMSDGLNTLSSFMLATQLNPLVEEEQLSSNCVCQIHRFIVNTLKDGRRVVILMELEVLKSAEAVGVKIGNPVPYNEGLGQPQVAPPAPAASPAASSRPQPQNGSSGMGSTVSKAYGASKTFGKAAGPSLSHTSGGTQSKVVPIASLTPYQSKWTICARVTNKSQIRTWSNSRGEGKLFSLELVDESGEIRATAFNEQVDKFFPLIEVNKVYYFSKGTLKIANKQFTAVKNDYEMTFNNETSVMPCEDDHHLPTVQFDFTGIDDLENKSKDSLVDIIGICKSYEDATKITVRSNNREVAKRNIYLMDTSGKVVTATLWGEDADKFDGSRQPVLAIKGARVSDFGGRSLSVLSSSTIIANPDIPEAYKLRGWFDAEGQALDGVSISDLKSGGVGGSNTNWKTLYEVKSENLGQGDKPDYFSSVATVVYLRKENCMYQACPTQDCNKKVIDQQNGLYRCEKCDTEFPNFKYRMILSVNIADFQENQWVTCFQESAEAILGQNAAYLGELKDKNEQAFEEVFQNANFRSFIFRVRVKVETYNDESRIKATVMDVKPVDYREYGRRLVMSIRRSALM
# PROTOCOL NOTES: Inhibition of GST-tagged p53/recombinant human N-terminal domain of RPA70 DNA binding domain interaction by ELISA-like plate binding assay
REPORTED ENDPOINT: IC50 (µM)
Record the value in µM, omitting the unit from your answer.

### Prompt I would be grateful if you could share the reported IC50 for CC(C)C1=CC23CCC4C(C)(C(=O)O)CCCC4(C)C2CC1C(C(=O)O)C3C(=O)O (stereo unspecified) .
### Response 10
